B1: TPR t1 (parent)
chain: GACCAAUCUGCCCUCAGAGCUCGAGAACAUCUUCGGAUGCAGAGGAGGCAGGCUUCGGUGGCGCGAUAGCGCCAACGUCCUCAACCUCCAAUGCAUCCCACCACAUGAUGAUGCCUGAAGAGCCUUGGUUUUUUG

- Variants of: B1
- protocol summary: polymerase ribozyme fitness, log enrichment relative to wild type (log ratio); higher = more active; in vitro selection for triplet polymerase activity
Short version: polymerase ribozyme fitness (log ratio) at least -5 is Met, less is Not met.

Reference set, count: 8
GACCAAUCUGCCCUCAGAGCUCGAGAACAUCUUCGGAUGCAGAGGAGGCAGGCUUCGGUGGCGCGAUAGCGCCAACGUCCUCAACCUCCAAUGUGUCCCACCACAUGAUGAUGCCUGAAGAGCCUUGGUUUUUUG
Met
GACCAAUCUGCCCUAAGAGCUCGAGAACAUCUUCGGAUGCAGAGGAGGCAGGCUUCGGUGGCGCGAUGGCGCCAACGUCCUCAACCUCCAAUGCAUACCACCGCAUGAUGAUGCCUGAAGAGCCUUGGUUUUUUG
Not met
GACCAAUAUGCCCUCAGUGCUCGAGAACAUCUUCGGAUGCAGAGCAGGCAGGCUUCGGUGGCGCGAUAGCGCCAACGUCCUCAACCUCCAAUGCAUCCCACCACAUGAAGAUGCCUGAAGAGCCUUGGUUUUUUG
Not met
GACCAAUCUGCCCUCAGAGCUCGAGAACAUCUUCGGAUGCAGAGGAGGUAGGCUUCGGUGGCGCGAUAGCGCCAACGUCCUCAACCUCCAAUGCAUCCCACCACAUGAUGAUGCCUGAAGAGCCUUGGUUUAUUG
Met
GACCAAUCUGCCCUCAGAGCUCGAGAACAUCUUCGGAUGCAGAGGAGGCAGGCUUCGGUGACGCGAUAGCGCCAACGUCCUCAACCUCCAAUGCAUCCCACCACAUGAUGAUGCAUGAAGAGCCUUGGAUUAUUG
Met
GACCAAUCUGCCCUCAGAGCUCGAGAACAUCUUCGGAUGCAGAGGAGGCAGGCUUCGGUGGCGCGAUAGCGCCAACGUCCUCAACCUCCAAUGCAUCCCACCACAUGAUGAUUCCUGUAGAGCCUUGGUUUUUUG
Met
GACCAAUCUGCCCUCAGAGCUCGAGAACAUCUUCGGUUGCAGAGGAGGCAGGCUUCGGUGGCGCGAUACCGCCAACGUCCUCAACCUCCAAUGCAUCCCACCACAUGAUGAUGCCUGAAGAGCCUUGGUUUUUUG
Met
GACCAAUCUGCGCUCAGAGCUCGAGAACAUCUUCGGAUGCAGAGGAGGCAGGCUUCGGUGGCGCGAUAGCGUCAACGUCCUCAACCUCCAAUGCAUCCCCCCACAUGAUGAUGCCUGAAGAGCCUUGGUUUUUUG
Met

Can `GACCAAUCUGCCCUCAGAGCUCGAGAACAUCUUCGGAUGCAGAGGAGGUAGGCUUCGGUGGGGCGAUAGCGCCAACGUCCUCAACCUCCAAUGCAUCCCACCACAUGAUGAUGCCUGAAGAGCCUUGGUUUUUUG` be said to have polymerase ribozyme fitness (log ratio) at or above -5? Met
